All values here come from the OligoGym collection.

- System Under Test: ZNF836
- Assay Details: pooled miR-30 sensor sort-seq; sequence = guide strand; further: reference of the scale not given here
- Condition Summary: shRNA
Below: a set of entries, each annotated with reported sensor-assay potency score (higher = more potent).
Form field (numeric): enter value without unit.

# query: sensor-assay potency score (higher = more potent) of entry TAACTTTGACTAAAGGACTTGC
0.219

# query: sensor-assay potency score (higher = more potent) of entry TTCAGTTTGAAATTTCTGCAGT
0.363

# query: sensor-assay potency score (higher = more potent) of entry TTTTGTCTGAAGATCTTGCCAC
0.166

# query: sensor-assay potency score (higher = more potent) of entry TAAGACTTGAAGACACTCTAAA
-0.52

# query: sensor-assay potency score (higher = more potent) of entry TAGGAGAACATCTAAAGGCTTT
0.15

# query: sensor-assay potency score (higher = more potent) of entry TTTGTTTTCTACATCCTCTTGA
0.866

====

- System Under Test: IL7
- Assay Details: pooled miR-30 sensor sort-seq; sequence = guide strand
- Condition Summary: shRNA
Readout Name: sensor-assay potency score (higher = more potent)
Form field (numeric): enter value without unit.

1. TTCCTTATTAGCATCACAGATA :: -0.731
2. TATCACAATCAGATGATGCTAC :: 0.423
3. TTGTTTGTATTCATCTTCTAGT :: -0.373
4. TTGTAATAGTCTCTTTAGGAAA :: -1.6
5. TATCTCTTGTAATAGTCTCTTT :: -0.557
6. TATTATTGCAACTGATACCTTA :: -0.0538
7. TAGGAAACACAAGTCATTCAGT :: 0.00202
8. TTTATTTTCTTCCAAACTCTTT :: -0.524
9. TAGCATCACAGATATGTCTTTT :: -0.445

Turning now to a further record.
# query: sensor-assay potency score (higher = more potent) of entry TAAAGATTTATTTTCTTCCAAA
-1.11

====

- System Under Test: SNRNP70
- Assay Details: pooled miR-30 sensor sort-seq; sequence = guide strand
- Condition Summary: shRNA
Rule: yes (1) for sensor-assay potency score (higher = more potent) not less than -0.2, no (0) for anything less.

Completed entries (count: 6):
1) TCCTCTTCTGGTACCACCGAGG :: no (0)
2) AATCTTCTTGCCATCTGCGTGT :: yes (1)
3) TTTGATAGGTCCGTACACCTCA :: yes (1)
4) TACACCTCAAACTCTCTCCGGA :: yes (1)
5) TAAGCTCTGTCTCCACTTCTTG :: no (0)
6) TTAAGCTCTGTCTCCACTTCTT :: no (0)

Is sensor-assay potency score (higher = more potent) for TATTCTTTTGATAGGTCCGTAC at or above -0.2?
no (0)

Is sensor-assay potency score (higher = more potent) for TAGCGGGAGGTGTCATCGCGGC at or above -0.2?
no (0)

Is sensor-assay potency score (higher = more potent) for TTCATGTGGCAGTTTCTCCAGG at or above -0.2?
yes (1)

Is sensor-assay potency score (higher = more potent) for TTGATAGGTCCGTACACCTCAA at or above -0.2?
no (0)

====

Below: a set of entries, each annotated with reported sensor-assay potency score (higher = more potent).
- System Under Test: CYBRD1
- Assay Details: pooled miR-30 sensor sort-seq; sequence = guide strand
- Condition Summary: shRNA
Form field (numeric): enter value without unit.

Consider the worked cases shown below.
1) TATCAGTCCAACCCAGCTGTGC :: -0.838
2) TTTAACTCTGAATCTGATTTGT :: -0.198
3) TACTTCATTGTTTAACTCTGAA :: -0.114

# query: sensor-assay potency score (higher = more potent) of entry TTCATCAGGAGCTTGCTGCATT
0.213

# query: sensor-assay potency score (higher = more potent) of entry TTAAACTCTAGTGCGCTCCCAT
-0.237

# query: sensor-assay potency score (higher = more potent) of entry TATATTGTTAACATTGTGGTTC
0.299

# query: sensor-assay potency score (higher = more potent) of entry TTTTCCTTGCTGCTACTTCATT
-1.57
